target: SNX3 (Homo sapiens, UniProt O60493); construct: Recombinant Human SNX3 protein (ab109970); test: biolayer interferometry (biotinylated SNX3 on SA biosensor), supported by CETSA in HCT116 and LoVo lysates
Sequence (O60493 2-162): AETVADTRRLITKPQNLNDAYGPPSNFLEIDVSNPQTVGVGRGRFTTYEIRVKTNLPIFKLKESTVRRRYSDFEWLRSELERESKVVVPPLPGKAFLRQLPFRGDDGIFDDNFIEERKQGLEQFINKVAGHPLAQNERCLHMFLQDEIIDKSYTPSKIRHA
property measured: pKd
Hey, just a heads up that pKd is the negative log base 10 of the concentration in molar.

Noted for C=CCc1ccc(O)c(-c2ccc(O)c(CC=C)c2)c1 [HNK, honokiol] : its pKd reads 4.54
